# Assay: gradient 5% acetonitrile 3 min, to 50% in 2 min, to 85% in 15 min, held 3 min, 100 µL/min
# Run parameters: column: Zorbax Extend-C18 2.1 x 50 mm; eluents: water / acetonitrile, 0.1% formic acid
Recorded RP-LC retention time for the following compounds
Give your result in s as a bare value.

See these solved cases before continuing.
CC1=C(c2ccccc2)S(=O)(=O)N=C1N1CCN(c2ccccn2)CC1	632
CCCCN(C)C(=O)CC1CCN(c2ccnc(NC)n2)CC1	577
COc1ccc(C2(C(=O)N3CCC(n4c(C)cnc4C4CCC4)CC3)CC2)cc1	662

*Q* State the recorded RP-LC retention time for this entry: "CCCC(=O)Nc1ccc2nc(N3CCN(CC)CC3)cc(C)c2c1"
*A* 560

*Q* Give its RP-LC retention time value. Item: "COC(=O)C1=CN(c2cccc(OC)c2)c2cc(Br)ccc2S1(=O)=O"
*A* 942

*Q* // RP-LC retention time lookup, key: "Cn1c(=O)c2c(C(=O)N3CCN(c4cccc(C(F)(F)F)c4)CC3)cc(=O)n(C)c2n(C)c1=O"
*A* 943

*Q* Consider the compound "Cn1ccc2c(cc(C(=O)NCc3cc(F)cc(F)c3)n2C)c1=O" and give its measured RP-LC retention time.
*A* 701

*Q* I have this compound here, COc1cc2c(cc1OC)C(C(=O)NCCN1CCOCC1)C1c3ccccc3CCN1C2=O (stereo not given) , and I need its recorded RP-LC retention time.
*A* 595

---

# Assay: gradient 5% acetonitrile 3 min, to 50% in 2 min, to 85% in 15 min, held 3 min, 100 µL/min
# Run parameters: column: Zorbax Extend-C18 2.1 x 50 mm; eluents: water / acetonitrile, 0.1% formic acid
Lab note: compare RP-LC retention time with 700 s, writing met if less and not met if equal or more.

Check out these entries, answers already filled in.
O=C(Cn1nc2c3sc(N4CCCCC4)nc3ncn2c1=O)Nc1ccccc1	not met
Cc1noc(-c2cccc(OC3CN(C(=O)NC(C)C)C3)c2)n1	not met
CCn1c(=O)n(CC)c2cc(NC3=C(C(=O)Nc4ccccc4)S(=O)(=O)c4ccccc43)ccc21	not met
O=C(NC1CCN(c2cc(-c3ccc(Cl)cc3)[nH]n2)C1)c1ccc(F)c(F)c1 (stereo not drawn)	not met
O=C(NCCC1CCN(C(=O)Nc2cc(F)ccc2F)CC1)c1ccco1	not met
Cc1ccc(CC(=O)N2CCC3(CC2)NC(=O)c2cc(F)ccc2N3C)cc1	not met

*Q* Record "O=C(C1CC1)N1[C@H]2CC[C@@H]1c1cnc(-c3ccc(F)cc3)nc1C2" : is its RP-LC retention time strictly below 700 s?
*A* not met

*Q* Does the reported RP-LC retention time of the following compound sit strictly below 700 s? "O=C(Nc1ccc(Br)cc1)N(c1ccccc1)c1ccccc1"
*A* not met

*Q* Confirm or reject: RP-LC retention time of Cc1ccc(CN(C(=O)c2ccc(OCC(C)C)cc2)C2CCS(=O)(=O)C2)o1 (stereo not drawn) lies strictly below 700 s
*A* not met

*Q* Strictly below 700 s: is that where RP-LC retention time of "CCN1C(=O)COc2ccc(-c3noc(COc4ccc(OC)cc4)n3)cc21" sits?
*A* not met

*Q* Does the reported RP-LC retention time of "CCOc1ccccc1C(=O)Nc1c(C(=O)Nc2ccccc2F)oc2cccnc12" stay below 700 s?
*A* not met

*Q* Answer whether the compound "CN(C)CC1(O)CCC2(CCN(C(=O)c3cccn3C)CC2)CC1" has RP-LC retention time strictly less than 700 s
*A* met

*Q* Determine if "COc1ccc(C)cc1NC(=O)Cn1nc2cc(C)nc(Nc3ccc(F)cc3)n2c1=O" shows RP-LC retention time strictly lower than 700 s.
*A* not met

*Q* Problem: For the compound COc1cc(C(=O)NC2C=CS(=O)(=O)C2)cc(OC)c1OC (stereo not drawn) , is RP-LC retention time under 700 s?
*A* met

*Q* Please check: RP-LC retention time for "O=S(=O)(NCCc1noc(-c2ccccc2)n1)c1ccc(Cl)cc1" , strictly under 700 s or not?
*A* not met

*Q* Consider COc1ccc(C(O)CN2CCN(c3ccccc3F)CC2)cc1 (stereo not drawn) . Does its RP-LC retention time lie strictly below 700 s?
*A* met

---

# Assay: gradient 5% acetonitrile 3 min, to 50% in 2 min, to 85% in 15 min, held 3 min, 100 µL/min
# Run parameters: column: Zorbax Extend-C18 2.1 x 50 mm; eluents: water / acetonitrile, 0.1% formic acid
Measured property: RP-LC retention time (s)
# output: bare number, implied unit s

These solved cases illustrate the format of a correct answer.
Cc1ccnc(SCC(=O)Nc2nc(-c3ccccc3)c(-c3ccccc3)o2)n1	959
COc1ccc(NC(=O)Cn2c(=O)n(-c3ccc(F)cc3)c3ncccc32)cc1OC	753
CCn1c(C2CCCN(C(=O)NC(C)C)C2)nn(C)c1=O (stereo not given)	613
O=C(c1ccccn1)N1CCCn2cc(-c3ccccc3)nc21	620
CC(NC(=O)c1cc(-c2ccccc2)cn1C)c1cccnc1 (stereo not given)	662

Please turn your attention to the following entry.
*Q* Would you mind telling me what RP-LC retention time value was observed for "CC(=O)c1cccc(NC(=O)c2cc(-c3cccnc3)nc3ccccc23)c1" ?
*A* 739

---

# Assay: gradient 5% acetonitrile 3 min, to 50% in 2 min, to 85% in 15 min, held 3 min, 100 µL/min
# Run parameters: column: Zorbax Extend-C18 2.1 x 50 mm; eluents: water / acetonitrile, 0.1% formic acid
The reader will find reported RP-LC retention time values listed item by item below.
Give just the number in s; leave the unit off.

*Q* For Cc1ccc(F)cc1S(=O)(=O)N1CCCC(C)(C(=O)NCc2cccc(F)c2)C1 (stereo not given) , what is its reported RP-LC retention time?
*A* 1020

*Q* I'd like to know its RP-LC retention time. The molecule in question is "Cc1nn(CC(=O)N2CCN(C)CC2)c(=O)c2cc(-c3ccccc3)nn12"
*A* 626

*Q* Recorded RP-LC retention time of "O=C(NCc1ccsc1)C(=O)NCc1ccccc1Cl" , please.
*A* 842

*Q* State the recorded RP-LC retention time for this entry: "CCCC(=O)Nc1nc(-c2ccc3c(c2)N(C)C(=O)CO3)c(C)s1"
*A* 856

*Q* Data request, read-out RP-LC retention time, for "NC(=O)Cc1csc(NC(=O)c2csc(Nc3ccc(OC(F)F)cc3)n2)n1"
*A* 688

---

# Assay: gradient 5% acetonitrile 3 min, to 50% in 2 min, to 85% in 15 min, held 3 min, 100 µL/min
# Run parameters: column: Zorbax Extend-C18 2.1 x 50 mm; eluents: water / acetonitrile, 0.1% formic acid
Measured property: RP-LC retention time (s)
Note: unit s is implicit; provide only the numeric part.

Solved entries:
Cc1ccnc(NC(=O)C2CCN(S(=O)(=O)c3c(C)nn(CC(=O)N4CCCC4)c3C)CC2)c1	619
Cc1cc(NC(=O)C2CCCN(c3cnc4nccnc4c3)C2)ccc1F (centres undefined)	769
O=C(NCCCN1CCCC1)C1c2ccccc2CC(=O)N1Cc1ccccc1 (centres undefined)	604

*Q* Which RP-LC retention time reading was recorded for the compound "CN(C)CCNC(=O)c1ccc2ccnc(N3CCN(C(=O)c4ccco4)CC3)c2c1" ?
*A* 557

*Q* Look up RP-LC retention time: "CCOC(=O)c1c(S(=O)(=O)NCc2ccc3c(c2)OCO3)n[nH]c1CC"
*A* 718

*Q* Recorded RP-LC retention time of "CNC(=O)c1ccc2c(c1)CCCN2C(=O)c1ccc(F)cc1" , please.
*A* 698

*Q* Given "CC(C)Cn1cc(CCNS(=O)(=O)c2ccc(Cl)cc2)c2cccnc21" , state its recorded RP-LC retention time.
*A* 993

*Q* What value of RP-LC retention time has been recorded for this entry: "CCNC(=O)C1CCN(S(=O)(=O)c2cc(Cl)ccc2OC)CC1"
*A* 726

*Q* So what's the measured RP-LC retention time for this one? COc1ccc(N2CC(c3nc(-c4ccccc4)no3)CC2=O)cc1Cl (centres undefined)
*A* 973

*Q* I'd like to know its RP-LC retention time. The compound in question is "O=C(NCCc1ccccc1)Nc1cnn(-c2ncc(N3CCCCC3)cn2)c1"
*A* 799

*Q* Item under review: "CC(C)n1nc(CNC(=O)c2ccccn2)c2ccccc21" . Reported RP-LC retention time?
*A* 874

---

# Assay: gradient 5% acetonitrile 3 min, to 50% in 2 min, to 85% in 15 min, held 3 min, 100 µL/min
# Run parameters: column: Zorbax Extend-C18 2.1 x 50 mm; eluents: water / acetonitrile, 0.1% formic acid
Note to self: use rule met only for RP-LC retention time readings below 1000 s; a reading exactly at 1000 s still gets rule not met.

// below: answered compounds
CNC(=O)CN1C(=O)C2CCCCN2c2ccc(S(=O)(=O)N(C)C)cc21 (centres undefined)	rule met
O=C(Nc1ccc(F)cc1F)N1CCN(c2cc(-c3ccncc3)[nH]n2)CC1	rule met

*Q* RP-LC retention time under 1000 s? Item: "COc1ccc(-c2nc(-c3ccc(S(=O)(=O)N4CCCC4)cc3)no2)cc1"
*A* rule not met

*Q* Criterion: RP-LC retention time strictly below 1000 s. Is it met by "COc1cccc(-c2noc(Cn3c(=O)n(-c4ccc(Cl)cc4)c(=O)c4sccc43)n2)c1" ?
*A* rule not met

*Q* Just wondering, is RP-LC retention time of "COc1ccc(CNC(=O)C2CCN(C(=O)c3nn(C)c4c3CN(C(=O)C(C)C)CC4)CC2)cc1" below 1000 s?
*A* rule met

*Q* Record "Cn1ccc(CN2CCN(Cc3cccc(F)c3)CC2)cc1=O" : is its RP-LC retention time strictly below 1000 s?
*A* rule met

*Q* Please state whether RP-LC retention time is below 1000 s for "Cc1nc2c(sc3nc(-c4ccccc4)ccc32)c(=O)n1CC(=O)Nc1cccc(C(C)C)c1"
*A* rule not met

*Q* A record lists "C=CCn1nnc(NCc2ccc(-c3cccc(Cl)c3C)o2)n1" . Is its RP-LC retention time below 1000 s?
*A* rule not met

*Q* Given the entry CCOc1cc(-c2noc(-c3nnn4c3COC(c3ccc(Cl)cc3)C4)n2)ccc1OC (centres undefined) , would its reported RP-LC retention time be below 1000 s?
*A* rule not met
